Data origin: patent US12065416B2

Consider the following molecules and their measured IC50 readings.
Target: recombinant cGAS (aa147-522) (Homo sapiens, UniProt Q8N884)
Construct: recombinant cGAS (aa147-522); His6-SUMO (N, cleaved yes)
Sequence (Q8N884 147-522): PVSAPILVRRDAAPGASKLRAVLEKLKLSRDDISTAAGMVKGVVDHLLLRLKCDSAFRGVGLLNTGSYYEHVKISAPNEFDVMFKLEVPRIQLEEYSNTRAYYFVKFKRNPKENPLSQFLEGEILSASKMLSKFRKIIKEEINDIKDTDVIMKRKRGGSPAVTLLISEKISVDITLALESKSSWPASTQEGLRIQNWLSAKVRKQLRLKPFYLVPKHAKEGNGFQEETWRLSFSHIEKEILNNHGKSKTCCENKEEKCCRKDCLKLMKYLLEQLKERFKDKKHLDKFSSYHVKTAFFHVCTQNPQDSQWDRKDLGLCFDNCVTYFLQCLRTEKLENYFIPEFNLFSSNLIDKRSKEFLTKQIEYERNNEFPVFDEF
Experiment: In vitro assay for inhibition of cGAS activity (ATP consumption, Kinase Glo)
Conditions: 37° C. 20 minutes, read-out: Activity (Inhibition of cGAS enzyme activity in vitro, IC50)

// known answers, use as guide
INSERT INTO measurements (smiles_record, readout_label, assay_value) VALUES
  ('CN1C(=O)S/C(=C\c2cc(OCc3cn(-c4ccncc4)nn3)c(O)cc2Br)C1=O', 'IC50', '≥ 10000 nM'),
  ('CN1C(=O)S/C(=C\c2cc(C(F)(F)F)c(O)cc2Br)C1=O', 'IC50', '≤ 500 nM'),
  ('CN1C(=O)S/C(=C\c2cc(OCc3ccn(Cc4ccccc4)c(=O)c3)c(O)cc2Br)C1=O', 'IC50', '500 to 10000 nM'),
  ('COc1cc(/C=C2\Sc3ccccc3C2=O)c(Br)cc1O', 'IC50', '500 to 10000 nM'),
  ('COc1cc(/C=c2\sc3nccn3c2=O)c(Br)cc1O', 'IC50', '≤ 500 nM');

## Input Quick one: IC50 of Nc1ncc(COc2cc(/C=C3\Sc4ncccc4C3=O)c(Br)c(F)c2O)cn1 ?
## Output ≤ 500 nM
